# maps each entry to its IC50
test system: MCF-7 cells; test: Inhibitory effect on the growth of MCF-7 cells (CellTiter-Glo, 10 days); type: cell-based; conditions: Homo sapiens, MCF7, 240 h, 10 days incubation, CellTiter-Glo chemiluminescence

{"columns": ["COMPOUND", "IC50"],
 "data": [
  ["CN1Cc2c(ccc3[nH]ncc23)[C@@H](c2c(F)cc(NC3CN(CCCF)C3)cc2F)[C@@H]1CC1CC1", "> 1000 nM"],
  ["CC(C)C[C@H]1[C@H](c2c(F)cc(OC3CN(C=O)C3)cc2F)c2ccc3[nH]ncc3c2CN1C", "≤ 1 nM"],
  ["CC(C)C[C@H]1[C@H](c2c(F)cc(NC3CN(CC(C)C)C3)cc2F)c2ccc3[nH]ncc3c2CN1C", "> 1000 nM"],
  ["CC(C)C[C@H]1[C@H](c2ccc(NC3CN(CCCF)C3)cc2)c2ccc3[nH]ncc3c2CN1C", "1 to 10 nM"],
  ["CCCCCN1CC(Nc2cc(F)c([C@@H]3c4ccc5[nH]ncc5c4CN(C)[C@H]3CC(C)C)c(F)c2)C1", "> 1000 nM"],
  ["CC(C)C[C@H]1[C@H](c2c(F)cc(OC3CN(C(=O)C(C)C)C3)cc2F)c2ccc3[nH]ncc3c2CN1C", "1 to 10 nM"],
  ["CC(C)C[C@H]1[C@H](c2c(F)cc(NC3CN(CC(F)CF)C3)cc2F)c2ccc3[nH]ncc3c2CN1C (stereo partly shown)", "> 1000 nM"],
  ["CCCCCN1CC(Oc2cc(F)c([C@@H]3c4ccc5[nH]ncc5c4CN(C)[C@H]3CC(C)C)c(F)c2)C1", "> 1000 nM"],
  ["CCCCN1CC(Sc2cc(F)c([C@@H]3c4ccc5[nH]ncc5c4CN(C)[C@H]3CC3CC3)c(F)c2)C1", "> 1000 nM"],
  ["CCCCN1CC(Nc2cc(F)c([C@@H]3c4ccc5[nH]ncc5c4CN(C)[C@H]3CC(C)C)c(F)c2)C1", "> 1000 nM"],
  ["CC(C)CN1CC(Sc2cc(F)c([C@@H]3c4ccc5[nH]ncc5c4CN(C)[C@H]3CC3CC3)c(F)c2)C1", "> 1000 nM"],
  ["CN1Cc2c(ccc3[nH]ncc23)[C@@H](c2c(F)cc(OC3CN(CCCF)C3)cc2F)[C@@H]1CC1CC1", "> 1000 nM"],
  ["CC(C)C[C@H]1[C@H](c2c(F)cc(OC3CN(CCCF)C3)cc2F)c2ccc3[nH]ncc3c2CN1C", "≤ 1 nM"]
]}

* * *

test system: MCF-7 cells; assay: Inhibitory effect on the growth of MCF-7 cells (CellTiter-Glo, 10 days); type: cell-based; settings: Homo sapiens, MCF7, 240 h, 10 days incubation, CellTiter-Glo chemiluminescence
# maps each entry to its IC50

{"columns": ["QUERY SMILES", "IC50"],
 "data": [
  ["CC(C)C[C@H]1[C@H](c2c(F)cc(SC3CN(CCCF)C3)cc2F)c2ccc3[nH]ncc3c2CN1C", "≤ 1 nM"],
  ["CCCN1CC(Oc2cc(F)c([C@@H]3c4ccc5[nH]ncc5c4CN(C)[C@H]3CC3CC3)c(F)c2)C1", "> 1000 nM"],
  ["CC(=O)N1CC(Oc2cc(F)c([C@@H]3c4ccc5[nH]ncc5c4CN(C)[C@H]3CC(C)C)c(F)c2)C1", "≤ 1 nM"],
  ["CCCCN1CC(Sc2cc(F)c([C@@H]3c4ccc5[nH]ncc5c4CN(C)[C@H]3CC(C)C)c(F)c2)C1", "10 to 1000 nM"]
]}

* * *

Tested on: MCF-7 cells
Assay: Inhibitory effect on the growth of MCF-7 cells (CellTiter-Glo, 10 days)
Type: cell-based
Settings: Homo sapiens, MCF7, 240 h, 10 days incubation, CellTiter-Glo chemiluminescence
Protocol: Assay 2: Inhibitory effect of compounds of the present invention on the growth of MCF-7 cells by a cell drug inhibition experiment 1. Experimental Materials […] 2) Instruments: American MD-M5 microplate reader 5; […] 3) To each well of MCF-7 cells, 100 μl of CellTiter-Glo reagent was added and then set aside at room temperature for 10 minutes. The chemiluminescence signal was read using an MD-M5 microplate reader, and the data was processed using GraphPad Prism to calculate IC50 value.
# maps each entry to its IC50
MEASURED QUANTITY: IC50

{"columns": ["MOLECULE", "MEASURED QUANTITY", "MEASURED RESULT"],
 "data": [
  ["CC(C)CN1CC(Oc2cc(F)c([C@@H]3c4ccc5[nH]ncc5c4CN(C)[C@H]3CC3CC3)c(F)c2)C1 [Example 22]", "IC50", "> 1 µM"],
  ["CCCCCN1CC(Sc2cc(F)c([C@@H]3c4ccc5[nH]ncc5c4CN(C)[C@H]3CC3CC3)c(F)c2)C1 [Example 29]", "IC50", "> 1 µM"],
  ["CCCCCN1CC(Sc2cc(F)c([C@@H]3c4ccc5[nH]ncc5c4CN(C)[C@H]3CC(C)C)c(F)c2)C1 [Example 14]", "IC50", "> 1 µM"],
  ["CCC(=O)N1CC(Oc2cc(F)c([C@@H]3c4ccc5[nH]ncc5c4CN(C)[C@H]3CC(C)C)c(F)c2)C1 [Example 32]", "IC50", "≤ 0.001 µM"]
]}

* * *

Tested on: MCF-7 cells
Test: Inhibitory effect on the growth of MCF-7 cells (CellTiter-Glo, 10 days)
Assay type: cell-based
Settings: Homo sapiens, MCF7, 240 h, 10 days incubation, CellTiter-Glo chemiluminescence
Description: Assay 2: Inhibitory effect of compounds of the present invention on the growth of MCF-7 cells by a cell drug inhibition experiment 1. Experimental Materials […] 2) Instruments: American MD-M5 microplate reader 5; […] 3) To each well of MCF-7 cells, 100 μl of CellTiter-Glo reagent was added and then set aside at room temperature for 10 minutes. The chemiluminescence signal was read using an MD-M5 microplate reader, and the data was processed using GraphPad Prism to calculate IC50 value.
pIC50: −log10 of the molar value.
# maps each entry to its pIC50

{"columns": ["MOLECULE", "pIC50"],
 "data": [
  ["CN1Cc2c(ccc3[nH]ncc23)[C@@H](c2c(F)cc(SC3CN(CCCF)C3)cc2F)[C@@H]1CC1CC1 [Example 25]", "6.00 to 8.00"],
  ["CCCN1CC(Sc2cc(F)c([C@@H]3c4ccc5[nH]ncc5c4CN(C)[C@H]3CC3CC3)c(F)c2)C1 [Example 26]", "6.00 to 8.00"],
  ["C[C@]12CC[C@@H]3c4ccc(O)cc4C[C@@H](CCCCCCCCC[S+]([O-])CCCC(F)(F)C(F)(F)F)[C@H]3[C@@H]1CC[C@@H]2O (stereo partly shown) [Fulvestrant, reference compound]", "6.00 to 8.00"],
  ["CCCN1CC(Oc2cc(F)c([C@@H]3c4ccc5[nH]ncc5c4CN(C)[C@H]3CC(C)C)c(F)c2)C1 [Example 16]", "≥ 9.00"],
  ["CCCC(=O)N1CC(Oc2cc(F)c([C@@H]3c4ccc5[nH]ncc5c4CN(C)[C@H]3CC(C)C)c(F)c2)C1 [Example 33]", "6.00 to 8.00"],
  ["CC(C)C[C@H]1[C@H](c2c(F)cc(OC3CN(CC(C)C)C3)cc2F)c2ccc3[nH]ncc3c2CN1C [Example 17]", "8.00 to 9.00"],
  ["CCCCN1CC(Oc2cc(F)c([C@@H]3c4ccc5[nH]ncc5c4CN(C)[C@H]3CC(C)C)c(F)c2)C1 [Example 18]", "< 6.00"]
]}

* * *

# maps each entry to its pIC50
system: MCF-7 cells; test: Inhibitory effect on the growth of MCF-7 cells (CellTiter-Glo, 10 days); format: cell-based; settings: Homo sapiens, MCF7, 240 h, 10 days incubation, CellTiter-Glo chemiluminescence
pIC50: −log10 of the molar value.
MEASURED QUANTITY: pIC50

{"columns": ["QUERY SMILES", "MEASURED RESULT"],
 "data": [
  ["CCCN1CC(Nc2cc(F)c([C@@H]3c4ccc5[nH]ncc5c4CN(C)[C@H]3CC(C)C)c(F)c2)C1", "< 6.00"],
  ["CC(C)C[C@H]1[C@H](c2c(F)cc(NC3CN(CCCF)C3)cc2F)c2ccc3[nH]ncc3c2CN1C", "≥ 9.00"],
  ["CCCN1CC(Sc2cc(F)c([C@@H]3c4ccc5[nH]ncc5c4CN(C)[C@H]3CC(C)C)c(F)c2)C1", "≥ 9.00"],
  ["CC(C)C[C@H]1[C@H](c2c(F)cc(SC3CN(CC(C)C)C3)cc2F)c2ccc3[nH]ncc3c2CN1C", "6.00 to 8.00"],
  ["CC(C)C[C@H]1[C@H](c2c(F)cc(NC3CN(CCC(F)(F)F)C3)cc2F)c2ccc3[nH]ncc3c2CN1C", "< 6.00"],
  ["CCCCN1CC(Oc2cc(F)c([C@@H]3c4ccc5[nH]ncc5c4CN(C)[C@H]3CC3CC3)c(F)c2)C1", "< 6.00"],
  ["CCCCCN1CC(Oc2cc(F)c([C@@H]3c4ccc5[nH]ncc5c4CN(C)[C@H]3CC3CC3)c(F)c2)C1", "< 6.00"]
]}

From: patent US11236088B2
